# measured.target: T1, recombinant human Siglec-15 protein (Homo sapiens, UniProt Q6ZMC9)
# T1 construct: purchased Bonopusbio CW70-50 ug
# T1 sequence (Q6ZMC9 20-263 limits assumed): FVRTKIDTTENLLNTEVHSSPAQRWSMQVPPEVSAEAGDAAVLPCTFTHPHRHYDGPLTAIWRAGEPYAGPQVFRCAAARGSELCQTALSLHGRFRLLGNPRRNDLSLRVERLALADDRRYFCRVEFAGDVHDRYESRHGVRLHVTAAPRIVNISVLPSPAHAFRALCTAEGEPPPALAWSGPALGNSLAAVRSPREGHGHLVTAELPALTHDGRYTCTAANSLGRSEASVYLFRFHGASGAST
# protocol.description: BIACORE surface plasmon resonance binding affinity
# condition.summary: SPR; antibody as ligand, human Siglec-15 as analyte; 1:1 Langmuir model
measure: ka (M⁻¹ s⁻¹)
Express the result in M⁻¹ s⁻¹ but write the number alone.

* S15B1: parental mouse anti-Siglec-15 monoclonal antibody from hybridoma; VH SEQ ID NO: 18, VL SEQ ID NO: 19 (antibody, V domains shown, Clone S15B1 VH; Clone S15B1 VL) VH: QVQLQQSGPELVKPGASVKISCKASGYAFSSSWMNWVKQRPGKGLEWIGRIYPGHGETNYNGKFKDKATVTADKSSSTTYMQLSSLTSEDSAVYFCARVDNSDPYYFDYWGQGTTLTVSS VL: DIVLTQSPASLAVSLGQRATISCRASKSVSTSGYSYMHWYQQKPGQPPKLLIYLASNLESGVPARFSGSGSGTDFTLNIHPVEEEDAATYYCQHGRELPFTFGSGTKLEIK | 4.46e+06
* S15B1-VH3 + VL1: humanized S15B1 antibody, humanized VH3 with humanized VL1 (antibody, V domains shown) VH: QVQLVQSGAEVKKPGASVKVSCKASGYAFSSSWMNWVKQAPGQGLEWIGRIYPGHGETNYNGKFKDRATMTADTSTSTVYMELSSLRSEDTAVYFCARVDNSDPYYFDYWGQGTTVTVSS VL: DIVLTQSPASLAVSPGQRATITCRASKSVSTSGYSYMHWYQQKPGQPPKLLIYLASNLESGVPARFSGSGSGTDFTLTINPVEAEDTANYYCQHGRELPFTFGGGTKLEIK | 3.73e+06

Noted for S15B1-VH2 + VL1: humanized S15B1 antibody, humanized VH2 with humanized VL1 (antibody, V domains shown) VH: QVQLVQSGAEVKKPGASVKVSCKASGYAFSSSWMNWVRQAPGQGLEWIGRIYPGHGETNYNGKFKDRVTMTADTSTSTVYMELSSLRSEDTAVYFCARVDNSDPYYFDYWGQGTTVTVSS VL: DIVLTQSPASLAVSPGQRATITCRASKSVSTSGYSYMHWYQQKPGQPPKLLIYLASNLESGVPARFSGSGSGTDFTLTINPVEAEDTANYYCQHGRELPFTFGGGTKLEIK : its ka reads 3.8e+06

Noted for S15B1-VH1 + VL1: humanized S15B1 antibody, humanized VH1 (SEQ ID NO: 103) with humanized VL1 (antibody, V domains shown) VH: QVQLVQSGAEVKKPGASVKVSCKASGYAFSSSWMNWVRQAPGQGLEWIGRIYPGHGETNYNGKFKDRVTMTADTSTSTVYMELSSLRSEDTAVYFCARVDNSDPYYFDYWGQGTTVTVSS VL: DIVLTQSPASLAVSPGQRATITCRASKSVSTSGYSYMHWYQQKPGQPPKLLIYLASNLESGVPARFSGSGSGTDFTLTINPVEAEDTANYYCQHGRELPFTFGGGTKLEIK : its ka reads 3.35e+06
